The reported numbers originate from paper PMC2600610.

# TARGET OR SYSTEM: Ir-LBP (Ixodes ricinus)
RECORDED ENDPOINT: Kd (pM)
Value expressed in pM; do not type the unit.

[ask] Need Kd, item CCCCC/C=C\C[C@@H](O)/C=C/C=C/C=C\[C@@H](O)CCCC(=O)O [LTB4, Leukotriene B4]
[reply] 590

###

# TARGET OR SYSTEM: Ir-LBP (Ixodes ricinus, UniProt B7ZDG7)
# Sequence (B7ZDG7 20-200 limits assumed): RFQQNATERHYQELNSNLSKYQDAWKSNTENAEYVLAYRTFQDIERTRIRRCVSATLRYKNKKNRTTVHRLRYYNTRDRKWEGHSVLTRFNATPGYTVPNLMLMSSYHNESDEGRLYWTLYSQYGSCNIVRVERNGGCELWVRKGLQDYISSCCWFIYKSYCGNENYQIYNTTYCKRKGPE
# EXPERIMENTAL DETAILS: Competitive binding: inhibition of 3H-LTB4 binding to Ir-LBP by eicosanoids
# DETAILS: competitor at 10 µM, 2 h
RECORDED ENDPOINT: decrease of the binding of 1 nM 3H-LTB4 to Ir-LBP

Recorded results for 5 compounds are shown here.
| COMPOUND | ASSAY VALUE |
| --- | --- |
| CCCCC/C=C\C[C@@H](O)/C=C/C=C\C/C=C\CCCC(=O)O [12(R)-HETE, 12(R)-hydroxyeicosatetraenoic acid] | approximately 30% |
| CCCCC/C=C\C\C=C/C=C/C=C/[C@@H](SC[C@H](NC(=O)CC[C@H](N)C(=O)O)C(=O)NCC(=O)O)[C@@H](O)CCCC(=O)O [LTC4] | unable to compete |
| CCCCC[C@@H](/C=C/C=C\C/C=C\C/C=C\CCCC(=O)O)OO [15(S)-HpETE, 15(S)-hydroxyperoxyeicosatetraenoic acid] | unable to compete |
| CCCCC/C=C\C\C=C/C=C/C=C/[C@@H]1O[C@H]1CCCC(=O)OC [LTA4 methyl ester] | unable to compete |
| CCCCC/C=C\C\C=C/C=C/C=C/[C@@H](SC[C@H](N)C(=O)O)[C@@H](O)CCCC(=O)O [LTE4] | approximately 30% |

[ask] Need decrease of the binding of 1 nM 3H-LTB4 to Ir-LBP, item CCCCC/C=C\C\C=C/C=C/C=C/[C@@H](SC[C@H](N)C(=O)NCC(=O)O)[C@@H](O)CCCC(=O)O [LTD4]
[reply] approximately 30%

[ask] Need decrease of the binding of 1 nM 3H-LTB4 to Ir-LBP, item CCCCC[C@H](O)/C=C/C=C\C=C\C=C\[C@@H](O)[C@@H](O)CCCC(=O)O [5(S), 6(R)-Lipoxin A4, 5 (S), 6 (R)-Lipoxin A4]
[reply] unable to compete

###

# System: R53T/R73A
# Construct: pCDNA3.1/V5-His-TOPO, expressed in 293T cells
# EXPERIMENTAL DETAILS: Saturation binding of ^3H-LTB4 (PBS pH 7.4, PEG 8000 precipitation) to wild-type and mutant Ir-LBP expressed in 293T cells.
# DETAILS: SD
RECORDED ENDPOINT: Kd
Answer with the figure and its unit, nothing else.

[ask] Need Kd, item CCCCC/C=C\C[C@@H](O)/C=C/C=C/C=C\[C@@H](O)CCCC(=O)O
[reply] 4.23 nM
